Test: Inhibition of Arabidopsis thaliana IspD
pIC50: −log10 of the molar value.
READOUT TYPE: pIC50

Past entries and their recorded results:
# COMPOUND, OBSERVED
rows = [
    ("Oc1c(Br)cc(Br)cc1-c1cc(C(F)(F)F)no1", 5.03),
    ("N#Cc1cnn2c(O)c(Cc3ccccc3)c(Cl)nc12", 4.46),
    ("Oc1ccc(Br)cc1-c1cc(C(F)(F)F)no1", 3.38),
    ("O=C(O)c1cnn2c(O)c(Cc3ccccc3)c(Cl)nc12", 3.56),
    ("CC(C)CCn1c(N)c(-c2nc3ccccc3[nH]2)c2nc3ccccc3nc21", 5.80),
]

A = COc1ccc2nc(NC(=O)COc3ccc(-c4ccccc4)cc3)sc2c1
B = CCN(CC)CCCC(C)n1c(N)c(-c2nc3ccccc3[nH]2)c2nc(C#N)c(C#N)nc21 (stereo not given)
C = Oc1c(Br)cc(Br)cc1-c1ccno1
D = COc1ccc2nc(NC(=O)c3cc(-c4ccccc4O)n[nH]3)sc2c1
Request: Rank ascending by pIC50. // ordering of labels required in reply
Response: C, B, A, D
(C: 3.92, B: 4.30, A: 5.20, D: 5.74)

// provenance: ChEMBL document CHEMBL6096684
